Measured melting point values are reported for all entries that follow.

Would you please look over these solved cases?
INSERT INTO results (compound_smiles, measured_parameter, observed_value) VALUES
  ('C[C@H](NS(=O)(=O)c1cnc(-c2c(C#N)c3ccc(F)cc3n2C2CCCC2)nc1)C(F)(F)F', 'melting point', '217 to 219 °C'),
  ('Cc1cc2c(cc1F)c(C#N)c(-c1ccc(S(=O)(=O)N[C@@H](C)C(F)(F)F)cn1)n2-c1cccs1', 'melting point', '233 to 240 °C'),
  ('Cc1cc2c(cc1F)c(C#N)c(-c1ccc(S(=O)(=O)N[C@@H](C)C(F)(F)F)cn1)n2-c1sccc1C', 'melting point', '197 to 203.8 °C'),
  ('CCc1cc2c(cc1F)c(C#N)c(-c1ccc(S(=O)(=O)N[C@@H](C)C(F)(F)F)cn1)n2-c1ncc(Cl)cn1', 'melting point', '222 to 229 °C');

-- ask Entry CC(C)(C)NS(=O)(=O)c1ccc(-c2c(C#N)c3cc(F)c(C4CC4)cc3n2-c2ccccc2)nc1 : reported melting point = ?
-- reply 219.2 to 220.8 °C

-- ask Entry Cc1cc2c(cc1F)c(C(N)=O)c(-c1ccc(S(=O)(=O)N[C@H](C)C(F)(F)F)cn1)n2C1CCC1 : reported melting point = ?
-- reply 195 to 197 °C

-- ask Entry C[C@H](NS(=O)(=O)c1cnc(-c2c(C#N)c3cc(F)ccc3n2-c2ccccn2)nc1)C(F)(F)F : reported melting point = ?
-- reply 209 to 210 °C

Data provenance is patent US8735414B2.
